TARGET_OF_ASSAY: Lysine-specific demethylase 4A (Homo sapiens) (UniProt O75164)
Sequence (O75164 whole entry, looked up, the tested form may be a part): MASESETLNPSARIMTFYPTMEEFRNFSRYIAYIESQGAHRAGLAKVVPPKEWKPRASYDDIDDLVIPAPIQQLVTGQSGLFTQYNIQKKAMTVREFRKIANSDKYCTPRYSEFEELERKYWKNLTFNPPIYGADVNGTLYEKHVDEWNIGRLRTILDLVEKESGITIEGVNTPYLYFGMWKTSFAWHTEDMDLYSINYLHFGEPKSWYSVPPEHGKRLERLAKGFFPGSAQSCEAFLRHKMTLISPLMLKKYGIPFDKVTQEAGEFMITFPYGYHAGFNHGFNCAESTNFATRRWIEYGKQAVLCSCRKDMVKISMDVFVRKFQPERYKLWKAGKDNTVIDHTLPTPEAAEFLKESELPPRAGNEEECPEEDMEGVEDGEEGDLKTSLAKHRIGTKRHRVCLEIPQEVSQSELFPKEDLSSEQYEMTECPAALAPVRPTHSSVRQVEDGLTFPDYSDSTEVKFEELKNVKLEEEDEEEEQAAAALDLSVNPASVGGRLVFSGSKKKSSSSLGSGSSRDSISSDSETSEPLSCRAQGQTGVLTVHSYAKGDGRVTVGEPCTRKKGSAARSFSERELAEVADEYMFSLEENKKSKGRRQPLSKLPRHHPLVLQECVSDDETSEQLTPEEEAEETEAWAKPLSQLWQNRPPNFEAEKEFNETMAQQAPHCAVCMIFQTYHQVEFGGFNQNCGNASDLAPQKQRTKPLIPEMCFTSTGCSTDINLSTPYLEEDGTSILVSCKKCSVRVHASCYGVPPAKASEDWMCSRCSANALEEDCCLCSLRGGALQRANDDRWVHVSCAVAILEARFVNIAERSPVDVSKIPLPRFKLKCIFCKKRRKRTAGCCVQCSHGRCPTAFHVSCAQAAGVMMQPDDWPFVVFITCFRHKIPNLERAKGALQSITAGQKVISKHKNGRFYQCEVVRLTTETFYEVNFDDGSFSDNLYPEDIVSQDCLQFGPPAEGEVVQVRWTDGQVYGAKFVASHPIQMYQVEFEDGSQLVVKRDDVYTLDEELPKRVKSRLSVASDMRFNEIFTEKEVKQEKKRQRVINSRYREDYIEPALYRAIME
EXPERIMENT_DESCRIPTION: qHTS Assay for Inhibitors of JMJD2A-Tudor Domain; further: nearly all actives have a fitted effect of over 50% in size
MEASUREMENT_CONTEXT: AlphaScreen JMJD2A-Tudor / H3K4me3 peptide binding; series mostly up to 114 µM
About 17,000 (4.4%) of roughly 390,000 compounds were called active. Another 8% or so got no clear call; they are omitted. The call rests on the fitted dose curve; in most records, active means well fitted inhibition curve with a large enough effect; inconclusive means small, poorly fitted or top-dose-only effect; inactive means no such curve, though single readings can be large or run the other way. This is one part of a sample in which actives are shown more often than they occur.
Permitted responses: active, inactive

Examples from the recorded data:
Record lookup: outcome of this test for O=C(N/N=C/c1c(O)n(C2CC2)c(=S)[nH]c1=O)c1ccccc1 ? active

Likewise for O=C(c1ccccc1[N+](=O)[O-])N1CCC2(CC1)OCCO2 ? inactive

Try Cc1nnc(NC(=O)c2cccn(Cc3cccc(F)c3)c2=O)s1 next. inactive

And then O=C(N/N=C/c1c(O)n(C2CC2)c(=S)[nH]c1=O)c1ccccc1Cl , what is it? active

More entries:
Please state the recorded outcome for this compound: COc1ccccc1-n1c(O)c(C=NC2CC2)c(=O)[nH]c1=O inactive

Again, but for NCCc1c[nH]c2ccc(O)cc12 inactive
